Origin of measurements: the Human Domainome abundance scans (Beltran et al. 2025)

B1: Zinc finger homeobox protein 4, residues 2562 to 2617; numbered along this chain, Q86UP3 (parent)
chain: RLRTTITPEQLEILYEKYLLDSNPTRKMLDHIAREVGLKKRVVQVWFQNTRARERK

variants of: B1; test: abundance fitness (aPCA) (normalised: wild type 0, dead -1); higher = more abundant; growth selection in yeast, the domain comes from the species named; conditions: Homo sapiens
Recorded abundance fitness for the following variants
Please reply with the value in numeric form only.

INSERT INTO measurements (residue_change, measured) VALUES
  ('L20T', -0.19),
  ('Y18I', -0.246),
  ('Y18P', -0.842);

Let us examine a further case.
Input E35T , output reported abundance fitness.
-0.254
